recorded.endpoint: melting point (°C)

These recorded examples may help you get a feel for the data.
[[record]]
compound = "COCCN(C(=O)Nc1ccc(-c2ccccc2)cc1)c1nc(C)c(S(=O)(=O)NC2CC2)s1"
unit_text = "°C"
readout_value = 160

[[record]]
compound = "CCOc1ccc(NC(=O)N(CCCCNC(=O)OC(C)(C)C)c2nc(C)c(S(=O)(=O)NC)s2)cc1"
unit_text = "°C"
readout_value = 148

[[record]]
compound = "CCOc1ccc(NC(=O)N(C)c2nc(C)c(S(=O)(=O)NCc3cccc(OC)c3)s2)cc1"
unit_text = "°C"
readout_value = 134

[[record]]
compound = "CCOc1ccc(NC(=O)N(CCOC)c2nc(C)c(S(N)(=O)=O)s2)cc1"
unit_text = "°C"
readout_value = 171

[[record]]
compound = "CCOc1ccc(NC(=O)N(CC2CCCN2CC)c2nc(C)c(S(=O)(=O)N(C)C)s2)cc1 (stereo not drawn)"
unit_text = "°C"
readout_value = 158


(a) CCOc1ccc(NC(=O)N(CCCNC(=O)OC(C)(C)C)c2nc(C)c(S(=O)(=O)NCC(F)(F)F)s2)cc1 [135]
(b) Cc1nc(N(C)C(=O)Nc2ccc(-c3cccn3C(=O)OC(C)(C)C)cc2)sc1S(=O)(=O)N(C)C
// pick larger melting point from pair: a vs b Returns: label corresponding to the selected item. a
